Experiment Summary: Solubility in aqueous medium
Type: physicochemical
Settings: pH 7.4, water; pH 7.40; read-out: Solubility (pH 7.40)
Where a SMILES comes first, the peptide text is derived from it. [ ]: non-standard residue; d: D form.
Property Measured: solubility (µM)
All answers are understood in µM, so give the number only.

{"Compound": "CC(C)[C@H](NC(=O)[C@H](Cc1ccccc1)NC(=O)[C@H](Cc1ccccc1)NC(=O)[C@H](Cc1c[nH]cn1)NC(=O)[C@H](Cc1ccccc1)NC(=O)[C@@H]1CCCN1C(=O)[C@H](Cc1c[nH]cn1)NC(=O)[C@@H]1CCCN1)C(=O)N[C@@H](Cc1ccc(O)cc1)C(=O)N[C@H](CCCCN)C(=O)O [D-RIP] (H-PHPFHFFVY[dK]-OH)", "solubility, µM": 330}

Please look at the following compound next.
Q: Supply recorded solubility for CC(C)[C@H](NC(=O)[C@H](Cc1ccccc1)NC(=O)[C@H](Cc1ccccc1)NC(=O)[C@H](Cc1cnc[nH]1)NC(=O)[C@H](Cc1ccccc1)NC(=O)[C@@H]1CCCN1C(=O)[C@H](Cc1cnc[nH]1)NC(=O)[C@@H]1CCCN1)C(=O)N[C@@H](Cc1ccc(O)cc1)C(=O)N[C@@H](CCCCN)C(=O)O [RIP, Pro-His-Pro-Pre-His-Phe-Phe-Val-Tyr-Lys] (H-PHPFHFFVYK-OH) here.
Ans: 840
